Entries and their binding score
- MEASURED ON: T1, Bdf1 bromodomain 1 (GST-tagged, WT) (Saccharomyces cerevisiae (strain ATCC …, UniProt P35817))
- T1 chain: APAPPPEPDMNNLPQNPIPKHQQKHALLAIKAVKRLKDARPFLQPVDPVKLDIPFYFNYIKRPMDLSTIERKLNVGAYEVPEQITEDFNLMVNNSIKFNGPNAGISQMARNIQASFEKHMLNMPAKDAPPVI
- ASSAY SUMMARY: histone peptide array probed with recombinant GST-bromodomain, signal normalised to myc peptide control
Non-standard residues stand in square brackets, D forms with d. Primed or numbered codes have the meaning given here. No end group written: not given here. Me2a″ = asymmetric dimethylarginine (Rme2a); Arg(Me2a) = CN(C)C(=N)NCCC[C@H](N)C(=O)O; Lys(Me3) = C[N+](C)(C)CCCC[C@H](N)C(=O)O; Arg(Me2s) = CN=C(NC)NCCC[C@H](N)C(=O)O; pT = C[C@@H](OP(=O)(O)O)[C@H](N)C(=O)O; Lys(Me2) = CN(C)CCCC[C@H](N)C(=O)O; pS = N[C@@H](COP(=O)(O)O)C(=O)O
ASSAY READOUT: binding score

BINDER	RECORDED RESULT
RKSAPATGGVKKPHRYRPG (histone peptides carry modifications given inline in the sequence and in columns 4-7 (Kac, Kme1/2/3, Rme2a/s, Cit, pS/pT); N-terminus free or acetylated)	0.00968
PDPAK(Ac)SAPAPKK(Ac)G[pS]KKAVT	0.00663
ARTKQTARKSTGGKAPRKQ (A Rme2s T Kme2 Q T A Rme2a Kac S T G G K A P R K Q)	0.0108
ARTKQTA[Arg(Me2a)][Lys(Me2)][pS][pT]GGKAPRKQ	0.00448
ARTKQTARKSTGGKAPRKQ (A Rme2s pT Kme3 Q T A R K S T G G K A P R K Q)	0.00538
SGRGKGGKGLGKGGAKRHR (S G R G K G G Kac G L G K G G A K R H R)	0.0203
[pS]GRGK(Ac)QGGKARAK(Ac)AKSRSS [H2a 1-19]	0
PRKQLATKAA[Arg(Me2s)][Lys(Me2)]SAPATGG	0
ARTKQTARKSTGGKAPRKQ (not fully specified)	0.00592
RKSAPATGGVKKPHRYRPG (R K S A P A T G G V Kme1 K P H R Y R P G)	0
AR(Me2a″)TK(Ac)QTAR(Me2a″)K(Ac)STGGKAPRKQ	0.0387
ARTKQTARKSTGGKAPRKQ (A Rme2a T Kac Q T A R Kme2 S T G G K A P R K Q)	0.0255
ARTKQTARKSTGGKAPRKQ (A R T Kme1 Q T A Rme2a Kme1 S T G G K A P R K Q)	0.0154
SGRGKGGKGLGKGGAKRHR (pS G R G K G G K G L G K G G A K R H R)	0
ARTKQTARKSTGGKAPRKQ (A R T K Q T A R Kme2 pS T G G K A P R K Q)	0.00108
PRKQLATKAA[Arg(Me2a)]K(Ac)SAPATGG	0
ARTKQTARKSTGGKAPRKQ (A R T Kac Q T A Rme2a Kac S T G G K A P R K Q)	0.0576
ARTK(Ac)QTARKSTGGKAPRKQ	0.000538
A[Arg(Me2a)]T[Lys(Me2)]QTA[Arg(Me2a)][Lys(Me3)]STGGKAPRKQ	0
PRKQLATKAA[Arg(Me2a)]KSAPATGG	0
ARTKQTARKSTGGKAPRKQ (A Rme2a T Kme3 Q T A R Kac S T G G K A P R K Q)	0.00628
ARTKQTARKSTGGKAPRKQ (A Rme2s T Kme2 Q T A Rme2a Kme1 S T G G K A P R K Q)	0
ART[Lys(Me3)]QTA[Arg(Me2s)][Lys(Me2)]STGGKAPRKQ	0.00628
A[Arg(Me2s)]TK(Me)QTARKSTGGKAPRKQ	0
A[Arg(Me2s)]T[Lys(Me2)]QTAR[Lys(Me3)]STGGKAPRKQ	0
PDPAKSAPAPKKG[pS]KKAVT	0.00699
ARTKQTARKSTGGKAPRKQ (A R T K Q T A R Kme3 pS T G G K A P R K Q)	0
